Numbers sourced from paper PMC10786891.

- System: T1, EsCas13d, nuclease-dead (Eubacterium siraeum, UniProt B0MS50, R295A;H300A;R849A;H854A)
- T1 sequence: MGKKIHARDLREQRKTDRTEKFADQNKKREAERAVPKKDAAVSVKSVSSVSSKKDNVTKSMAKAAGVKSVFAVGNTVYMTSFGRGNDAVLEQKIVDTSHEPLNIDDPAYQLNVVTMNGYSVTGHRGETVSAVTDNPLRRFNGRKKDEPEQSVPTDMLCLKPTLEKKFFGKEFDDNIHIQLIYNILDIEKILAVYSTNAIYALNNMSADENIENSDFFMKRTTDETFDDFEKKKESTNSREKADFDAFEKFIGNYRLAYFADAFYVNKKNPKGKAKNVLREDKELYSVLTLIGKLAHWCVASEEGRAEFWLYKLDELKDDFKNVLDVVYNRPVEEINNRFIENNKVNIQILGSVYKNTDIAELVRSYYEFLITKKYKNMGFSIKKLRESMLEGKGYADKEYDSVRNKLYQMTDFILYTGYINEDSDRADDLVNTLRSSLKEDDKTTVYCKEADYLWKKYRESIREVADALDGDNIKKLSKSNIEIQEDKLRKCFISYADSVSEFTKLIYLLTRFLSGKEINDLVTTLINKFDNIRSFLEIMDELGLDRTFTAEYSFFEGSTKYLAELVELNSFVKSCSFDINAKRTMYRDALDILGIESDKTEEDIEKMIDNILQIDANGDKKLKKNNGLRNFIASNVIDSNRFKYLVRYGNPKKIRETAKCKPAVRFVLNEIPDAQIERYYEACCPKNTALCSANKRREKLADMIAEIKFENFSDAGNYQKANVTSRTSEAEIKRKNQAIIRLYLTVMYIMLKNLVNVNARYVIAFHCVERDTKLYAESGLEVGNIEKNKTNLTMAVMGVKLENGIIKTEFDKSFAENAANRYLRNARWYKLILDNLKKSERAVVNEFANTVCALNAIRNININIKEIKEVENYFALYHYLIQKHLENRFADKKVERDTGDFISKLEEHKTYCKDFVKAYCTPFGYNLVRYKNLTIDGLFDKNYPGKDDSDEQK
- Method: crRNA (strand 1, pre-loaded); Mg2+; 40 mM Tris-HCl pH 7.5, 150 mM NaCl, 6 mM MgCl2, 1 mM DTT, 0.1% Tween-20, 0.2 mg/ml BSA; 25 C; 10 min per concentration, then washed
- Conditions used: tags: His6-TwinStrep-SUMO cleaved; N-terminal SNAP kept (SNAP-Surface 488); label: 3' end held by stalled T7 RNA polymerase
Measure name: Kd

Worked examples follow.
Binder | Kd
target 2 MT 5'PFS UAU 3'PFS GAA (mixed) RNA 1: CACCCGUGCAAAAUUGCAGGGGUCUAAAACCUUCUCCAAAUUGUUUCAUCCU RNA 2: GGGAAUGGAUCCACAUCUACGAAUUCUAUAGGAUGAAACAAUUUGGAGAAGGAAAGAUCGGAAGAGCACACGU | 14.3 nM
target 1 A1G,A20C (mixed) RNA 1: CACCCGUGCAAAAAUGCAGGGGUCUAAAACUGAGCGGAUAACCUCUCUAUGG RNA 2: GGGAAUGGAUCCACAUCUACGAAUUCGUACCCUAGAGAGGUUAUCCGCUCGCCGAGAUCGGAAGAGCACACGU | 41 nM
target 1 MT 5'PFS UGC 3'PFS AUG (mixed) RNA 1: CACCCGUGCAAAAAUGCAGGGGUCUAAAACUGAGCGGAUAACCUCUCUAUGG RNA 2: GGGAAUGGAUCCACAUCUACGAAUUCUGCCCAUAGAGAGGUUAUCCGCUCAAUGAGAUCGGAAGAGCACACGU | ~55.5 nM

# evaluate next
Query: # query: Kd of entry target 3 insA 3' of 4,insU 3' of 1 (mixed) RNA 1: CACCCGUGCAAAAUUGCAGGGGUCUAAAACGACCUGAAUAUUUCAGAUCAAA RNA 2: GGGAAUGGAUCCACAUCUACGAAUUCGUUUUUGAUCUGAAAUAUUCAGAGUCUUGCAGAUCGGAAGAGCACACGU
Reply: 70 nM
